Tested on: Saccharomyces cerevisiae
Assay: protein stability index of tFT-peptide fusion (C-terminal peptide) (PSI (0-1 scale)); higher = more stable (slower turnover)
Settings: genetic background: wild type; temperature: 30 C
PROPERTY: protein stability index

Please review the following examples before continuing.
>>> observed_measurement("FSSARSPLLSRL")
0.705
>>> observed_measurement("LLYYQVFKTRRL")
0.406

I'd like to know its protein stability index. The sequence in question is "CTCGDFHRAWVS"
0.667

I'd like to know its protein stability index. The sequence in question is "YFGGMGPRGRER"
0.683

I'd like to know its protein stability index. The sequence in question is "PPPPAQGRRRPV"
0.703

I'd like to know its protein stability index. The sequence in question is "GFCWFRGVGSGG"
0.683

I'd like to know its protein stability index. The sequence in question is "GEAVTGQRGATS"
0.71

I'd like to know its protein stability index. The sequence in question is "KNVILKKNKNWL"
0.675

I'd like to know its protein stability index. The sequence in question is "LASSSPPTRPPH"
0.702

I'd like to know its protein stability index. The sequence in question is "PPLPPPPHPPFP"
0.683

I'd like to know its protein stability index. The sequence in question is "IHLALYKYEVMG"
0.584

I'd like to know its protein stability index. The sequence in question is "STNMDNRIRTLA"
0.431

I'd like to know its protein stability index. The sequence in question is "TDVLLLQLLISV"
0.311

I'd like to know its protein stability index. The sequence in question is "LPPPLPPSLRLR"
0.602

* * *

System: Saccharomyces cerevisiae
Assay: protein stability index of tFT-peptide fusion in wild type (PSI (0-1 scale)); higher = more stable (slower turnover)
Details: genetic background: wild type
protein stability index listing for selected sequences.
Answer as a number with no unit attached.

>>> observed_measurement("FSMIWTFRYWVN")
0.0367
>>> observed_measurement("KKHKKGQKQKIM")
0.179
>>> observed_measurement("FSERWTFRYWVN")
0.122
>>> observed_measurement("VRGAVGGWRLSG")
0.403
>>> observed_measurement("RLIQPLPVQILN")
0.309
>>> observed_measurement("RVTRLDAIYFRIK")
0.615
>>> observed_measurement("RVTRLDAIYFRIT")
0.16
>>> observed_measurement("MDKRNHLIKLLN")
0.111

I'd like to know its protein stability index. The sequence in question is "LKILRQKMNHQNQ"
0.623

I'd like to know its protein stability index. The sequence in question is "GLYMCSVGCMFR"
0.524

I'd like to know its protein stability index. The sequence in question is "RVLRLDAIYFRI"
0.376

I'd like to know its protein stability index. The sequence in question is "RSLVVLLPLYFR"
0.257

* * *

System: Saccharomyces cerevisiae
Assay: protein stability index of tFT-peptide fusion (C-terminal peptide) (PSI (0-1 scale)); higher = more stable (slower turnover)
Settings: genetic background: wild type; temperature: 30 C
protein stability index listing for selected sequences.
Answer as a number with no unit attached.

>>> observed_measurement("PLSRYPSPSLPL")
0.693
>>> observed_measurement("FSPDSDFTRCAP")
0.701
>>> observed_measurement("KKKHIRTEKDNK")
0.704
>>> observed_measurement("HLGIKGFHIFGY")
0.69
>>> observed_measurement("NQKEIKYTLKYI")
0.684
>>> observed_measurement("VGPGVLVLGVGA")
0.68

We now examine a further sequence.
I'd like to know its protein stability index. The sequence in question is "RGGLRRGSGREG"
0.684

* * *

System: Saccharomyces cerevisiae
Test: protein stability index of tFT-peptide fusion (C-terminal peptide) (PSI (0-1 scale)); higher = more stable (slower turnover)
Conditions: genetic background: wild type; temperature: 30 C
protein stability index listing for selected sequences.
Answer as a number with no unit attached.

Please review the following examples before continuing.
>>> observed_measurement("IVGLGLENGKEI")
0.704
>>> observed_measurement("QFGPSENVEFRS")
0.742
>>> observed_measurement("AIDGVREDTSVE")
0.704
>>> observed_measurement("RWFTFPVPVPFC")
0.642
>>> observed_measurement("PHRPPPHHSLPP")
0.698

Request body: readout protein stability index, system Saccharomyces cerevisiae, query "SYMCRCALDCFL" . Return the value.
0.643

Request body: readout protein stability index, system Saccharomyces cerevisiae, query "EFLGRVPNTQDG" . Return the value.
0.668

* * *

protein stability index listing for selected sequences.
Test system: Saccharomyces cerevisiae
Assay: protein stability index of tFT-peptide fusion (C-terminal peptide) (PSI (0-1 scale)); higher = more stable (slower turnover)
Conditions: genetic background: das1 deletion; temperature: 30 C

Please review the following examples before continuing.
>>> observed_measurement("RFLDYVRELESF [PDX1 C-terminal 12 aa]")
0.698
>>> observed_measurement("KRLTSRLNKKHK [SPN1 C-terminal 12 aa]")
0.694
>>> observed_measurement("NRRNNGYHPYNR [HRP1 C-terminal 12 aa]")
0.688
>>> observed_measurement("CGVSWKSGVVKL [PXP2 C-terminal 12 aa]")
0.709
>>> observed_measurement("AARPCLEGSVAP [YOR050C C-terminal 12 aa]")
0.686
>>> observed_measurement("ATRKALETARSA [MRPL13 C-terminal 12 aa]")
0.718
>>> observed_measurement("SRRFYRKIDHLA [YLR400W C-terminal 12 aa]")
0.699
>>> observed_measurement("GLEKKKKKQNNQ [NPR1 C-terminal 12 aa]")
0.69

We now examine a further sequence.
I'd like to know its protein stability index. The sequence in question is LPSPRFFSPITL [YER158W-A C-terminal 12 aa]
0.685

* * *

Tested on: Saccharomyces cerevisiae
Test: protein stability index of tFT-peptide fusion (C-terminal peptide) (PSI (0-1 scale)); higher = more stable (slower turnover)
Conditions: genetic background: wild type; temperature: 30 C
PROPERTY: protein stability index
Answer as a number with no unit attached.

>>> observed_measurement("TEISRHFIVVFV [YHR182C-A C-terminal 12 aa]")
0.351

I'd like to know its protein stability index. The sequence in question is WLTTKMSSSEAS [UIP4 C-terminal 12 aa]
0.741

I'd like to know its protein stability index. The sequence in question is VLLIRSDKKKKV [YIL102C-A C-terminal 12 aa]
0.696

I'd like to know its protein stability index. The sequence in question is STVLINVCKPTY [BAR1 C-terminal 12 aa]
0.667

I'd like to know its protein stability index. The sequence in question is SAQDSDIDLQDA [MCM7 C-terminal 12 aa]
0.682

I'd like to know its protein stability index. The sequence in question is KKLHEEYFGEDK [CRS1 C-terminal 12 aa]
0.646

I'd like to know its protein stability index. The sequence in question is RRRASKNAFRGM [ENP2 C-terminal 12 aa]
0.692

I'd like to know its protein stability index. The sequence in question is SFDVELVGLKFV [YHL019W-A C-terminal 12 aa]
0.695

I'd like to know its protein stability index. The sequence in question is FTFIIIQLFPAL [USE1 C-terminal 12 aa]
0.385

I'd like to know its protein stability index. The sequence in question is LLQSGRYGGNRS [RCI37 C-terminal 12 aa]
0.663

I'd like to know its protein stability index. The sequence in question is WRFLGIVKSPNT [YDR510C-A C-terminal 12 aa]
0.693

I'd like to know its protein stability index. The sequence in question is IIRSEKKKKEEQ [YBR292C C-terminal 12 aa]
0.659

I'd like to know its protein stability index. The sequence in question is RNVYSTKTRCIE [TDA10 C-terminal 12 aa]
0.699

I'd like to know its protein stability index. The sequence in question is YSISISLHTPCV [YHR049C-A C-terminal 12 aa]
0.632

I'd like to know its protein stability index. The sequence in question is YLRRFFEVTSLV [EMP24 C-terminal 12 aa]
0.338

I'd like to know its protein stability index. The sequence in question is FLPINVNDVPST [RGD3 C-terminal 12 aa]
0.708

I'd like to know its protein stability index. The sequence in question is ELKKIILESSMK [EXO5 C-terminal 12 aa]
0.68

I'd like to know its protein stability index. The sequence in question is EVPVNTADRGRL [PMU1 C-terminal 12 aa]
0.76

I'd like to know its protein stability index. The sequence in question is NCANCVYFSSRG [YDL221W C-terminal 12 aa]
0.716

I'd like to know its protein stability index. The sequence in question is LSVEEDRDVQMT [APC5 C-terminal 12 aa]
0.729

I'd like to know its protein stability index. The sequence in question is VNNAPARAKVSK [RCR2 C-terminal 12 aa]
0.669

I'd like to know its protein stability index. The sequence in question is KGCYKLCKNLLE [KEI1 C-terminal 12 aa]
0.696

I'd like to know its protein stability index. The sequence in question is TADIVYIDSELD [SPE1 C-terminal 12 aa]
0.694

These data points were gathered from the supplement of paper PMC10724198.
